The molecules listed here are annotated with their inhibition at 0.5 µM.
Tested on: RSV strain A2
Test: RSV antiviral cytoprotection assay in Hep2 cells (96-well and 384-well format, Cell TiterGlo read-out)
Assay type: cell-based, Respiratory Syncytial Virus (RSV)
Conditions: human respiratory syncytial virus, HEp-2, 0.5 uM; RSV-induced cytopathic effect in Hep2 cells; calculated from fitted dose response curve, normalized to 0% and 100%
// units = %; emit number, no label

The cases that follow already have their inhibition at 0.5 µM on record.
[
  {
    "MOLECULE": "Cc1cn2nc([C@@H]3CCCCN3C(=O)c3cc(Cl)ccc3NS(C)(=O)=O)cc2nc1N1CCCN1 [Compound 140]",
    "inhibition at 0.5 µM [%]": 100
  },
  {
    "MOLECULE": "Cc1cn2nc([C@@H]3CCCCN3C(=O)c3ccc(Cl)cc3Cl)cc2nc1N1CC[C@H](N)C1 [Compound 390]",
    "inhibition at 0.5 µM [%]": 86
  },
  {
    "MOLECULE": "Cc1ccc(NS(C)(=O)=O)c(C(=O)N2CCCC[C@H]2c2cc3nc(N4CCC4)c(C)cn3n2)c1 [Compound 189]",
    "inhibition at 0.5 µM [%]": 100
  },
  {
    "MOLECULE": "C[C@@H]1CN(c2cc(N3CC(O)C3)nc3cc([C@@H]4CCCCN4C(=O)c4cc(Cl)ccc4NS(C)(=O)=O)nn23)C[C@H](C)O1 [Compound 108]",
    "inhibition at 0.5 µM [%]": 100
  },
  {
    "MOLECULE": "Cc1cn2nc([C@@H]3CCCCN3C(=O)c3cn(C)nc3C(F)(F)F)cc2nc1N1CC[C@H](N)C1 [Compound 402]",
    "inhibition at 0.5 µM [%]": 99
  },
  {
    "MOLECULE": "Cc1cc(N2CC(O)C2)nc2cc([C@@H]3CCCCN3C(=O)c3cc(Cl)ccc3NS(C)(=O)=O)nn12 [Compound 40]",
    "inhibition at 0.5 µM [%]": 100
  }
]

Ask: Looking for the measured inhibition at 0.5 µM of Cc1cn2nc([C@@H]3CCCCN3C(=O)c3ccccc3C(F)(F)F)cc2nc1N1CC[C@H](N)C1 [Compound 387] , can you help?
Result: 77

----------
System: RSV strain A2
Experiment: RSV antiviral cytoprotection assay in Hep2 cells (96-well and 384-well format, Cell TiterGlo read-out)
Format: cell-based, Respiratory Syncytial Virus (RSV)
Conditions: human respiratory syncytial virus, HEp-2, 0.5 uM; RSV-induced cytopathic effect in Hep2 cells; calculated from fitted dose response curve, normalized to 0% and 100%
RESULT_TYPE: inhibition at 0.5 µM (%)
Return type: number; implicit unit %.

Would you please look over these solved cases?
[
  {
    "COMPOUND": "Cc1cn2nc([C@@H]3CCCCN3C(=O)c3cccn3C)cc2nc1N1CC[C@H](N)C1",
    "TEST_TARGET": "RSV strain A2",
    "UNITS": "%",
    "MEASURED_RESULT": 81
  },
  {
    "COMPOUND": "CC1(O)CN(c2cc(N3CCC3)nc3cc([C@@H]4CCCCN4C(=O)c4cc(Cl)ccc4NS(C)(=O)=O)nn23)C1",
    "TEST_TARGET": "RSV strain A2",
    "UNITS": "%",
    "MEASURED_RESULT": 100
  },
  {
    "COMPOUND": "CS(=O)(=O)Nc1ccc(Cl)cc1C(=O)N1CCCC[C@H]1c1cc2nc(N3CCC3)cc(N3CC(N)C(C(=O)N4CCC4)C3)n2n1 (some centres unmarked)",
    "TEST_TARGET": "RSV strain A2",
    "UNITS": "%",
    "MEASURED_RESULT": 100
  }
]

Ask: Request the reported inhibition at 0.5 µM associated with Cc1[nH]c2cc([C@@H]3CCCCN3C(=O)c3ccccc3NS(=O)(=O)N3CCOCC3)nn2c(=O)c1C
Result: 30

Ask: Field entry: CS(=O)(=O)Nc1ccc(Cl)cc1C(=O)N1CCCC[C@H]1c1cc2nc(N3CCC3)cc(N3CCOC3)n2n1
Result: 100

Ask: One more compound: Cc1cn2nc([C@@H]3CCCCN3C(=O)c3cccc(C(C)C#N)c3)cc2nc1N1CC[C@H](N)C1 (some centres unmarked)
Result: 100

Ask: Then this compound: C[C@H]1CC[C@@H](c2cc3nc(N4CCC4)cc(N4CCOCC4)n3n2)N(C(=O)c2cc(Cl)ccc2NS(C)(=O)=O)C1
Result: 100

Ask: What do you have for Cc1cn2nc([C@@H]3CCCCN3C(=O)c3ccccc3-c3cccnc3)cc2nc1N1CC[C@H](N)C1 ?
Result: 99

Ask: Here is the next compound: Cc1cn2nc([C@@H]3CCCCN3C(=O)c3ccc(F)c(C)c3Cl)cc2nc1N1CC[C@H](N)C1
Result: 80

Ask: Then Cc1cn2nc([C@@H]3CCCCN3C(=O)c3c(C)cccc3NS(C)(=O)=O)cc2nc1N1CCC1 ?
Result: 100

Ask: Also need Cc1cc(C2CC2)nc2cc([C@@H]3CCCCN3C(=O)c3cc(N)ccc3NS(C)(=O)=O)nn12 , thanks.
Result: 100

Ask: // query: Cc1cn2nc([C@@H]3CCCCN3C(=O)c3cc(C)c(F)c(C)c3)cc2nc1N1CC[C@H](N)C1
Result: 100

Ask: Again, but for Cc1cn2nc([C@@H]3CCCCN3C(=O)c3ccc(F)c(F)c3O)cc2nc1N1CC[C@H](N)C1
Result: 100

Ask: Proceed to CS(=O)(=O)Nc1ccc(Cl)cc1C(=O)N1CCCCCC1c1cc2nc(N3CCC3)cc(N3CCOCC3)n2n1 (centres unmarked)
Result: 99

----------
Test system: RSV strain A2
Assay: RSV antiviral cytoprotection assay in Hep2 cells (96-well and 384-well format, Cell TiterGlo read-out)
Format: cell-based, Respiratory Syncytial Virus (RSV)
Conditions: human respiratory syncytial virus, HEp-2, 0.5 uM; RSV-induced cytopathic effect in Hep2 cells; calculated from fitted dose response curve, normalized to 0% and 100%
Recorded inhibition at 0.5 µM by entry
Enter your answer as a number in %; do not include the unit.

As a guide, the following entries are already answered.
[
  {
    "MOLECULE": "Cc1cn2nc([C@@H]3CCCCN3C(=O)c3cc(Cl)ccc3NS(C)(=O)=O)cc2nc1N1CCC(Oc2ccccc2)C1 (stereo partly shown) [Compound 208]",
    "inhibition at 0.5 µM / %": 95
  },
  {
    "MOLECULE": "Cc1cc(N2CC[C@@H](O)C2)nc2cc([C@@H]3CCCCN3C(=O)c3cc(Cl)ccc3NS(C)(=O)=O)nn12 [Compound 48]",
    "inhibition at 0.5 µM / %": 99
  },
  {
    "MOLECULE": "CC(=O)Nc1ccc(C)cc1C(=O)N1CCCC[C@H]1c1cc2nc(N3CC(O)C3)c(C)cn2n1 [Compound 221]",
    "inhibition at 0.5 µM / %": 100
  },
  {
    "MOLECULE": "COCc1ccc(C(=O)N2CCCC[C@H]2c2cc3nc(N4CC[C@H](N)C4)c(C)cn3n2)cc1 [Compound 321]",
    "inhibition at 0.5 µM / %": 100
  },
  {
    "MOLECULE": "Cc1cn2nc([C@@H]3CCCCN3C(=O)c3ccc(Cl)c(Cl)c3)cc2nc1N1CC[C@H](N)C1 [Compound 392]",
    "inhibition at 0.5 µM / %": 95
  }
]

Ask: For Cc1cn2nc([C@@H]3CCCCN3C(=O)c3cc(Cl)ccc3NS(C)(=O)=O)cc2nc1N1C[C@@H]2[C@@H](N)[C@@H]2C1 [Compound 148] , what is its reported inhibition at 0.5 µM?
Result: 100

Ask: Again, but for Cc1cc(C2CC2)nc2cc([C@@H]3CCCCN3C(=O)C(NC(=O)OC(C)(C)C)c3ccccc3Br)nn12 (stereo partly shown) [Compound 237]
Result: 99

----------
System: RSV strain A2
Assay: RSV antiviral cytoprotection assay in Hep2 cells (96-well and 384-well format, Cell TiterGlo read-out)
Format: cell-based, Respiratory Syncytial Virus (RSV)
Settings: human respiratory syncytial virus, HEp-2, 0.5 uM; RSV-induced cytopathic effect in Hep2 cells; calculated from fitted dose response curve, normalized to 0% and 100%
RESULT_TYPE: inhibition at 0.5 µM (%)
Report as a plain number; the unit % is understood.

Consider the worked cases shown below.
[
  {
    "STRUCTURE_SMILES": "Cc1cn2nc([C@@H]3CCCCN3C(=O)c3cc(Cl)ccc3NS(C)(=O)=O)cc2nc1N1CCC[C@@H](N)C1",
    "inhibition at 0.5 µM (%)": 98
  },
  {
    "STRUCTURE_SMILES": "Cc1cn2nc([C@@H]3CCCCN3C(=O)c3c(Cl)cnn3C(C)C)cc2nc1N1CC[C@H](N)C1",
    "inhibition at 0.5 µM (%)": 99
  },
  {
    "STRUCTURE_SMILES": "Cc1cn2nc([C@@H]3CCCCN3C(=O)c3ccccc3-c3ccccc3)cc2nc1N1CC[C@H](N)C1",
    "inhibition at 0.5 µM (%)": 92
  }
]

// moving on: another record for inhibition at 0.5 µM
Ask: Returns the measured inhibition at 0.5 µM for the input compound. Input: Cc1cc(N2CCC2)nc2cc([C@@H]3CCCCN3C(=O)c3cc(Cl)ccc3NS(C)(=O)=O)nn12
Result: 100
